Data origin: ChEMBL document CHEMBL1138981

test: Cmax in rat at 2 mg/kg, po; format: ADME, organism-based; design: dose 2 mg/kg, route oral; conditions: in vivo

| compound | Cmax, nM |
| --- | --- |
| CN(Cc1ccc(-c2ccccc2S(N)(=O)=O)cc1)C(=O)[C@@H]1CCC[C@H]1C(=O)NCc1ccc(OC(F)(F)F)cc1 (relative stereo) | 1000 |

* * *

target: Sodium channel protein type 9 subunit alpha (Homo sapiens, UniProt Q15858); assay: Inhibition of peripheral nerve sodium channel NaV1.7
Sequence (Q15858 whole entry): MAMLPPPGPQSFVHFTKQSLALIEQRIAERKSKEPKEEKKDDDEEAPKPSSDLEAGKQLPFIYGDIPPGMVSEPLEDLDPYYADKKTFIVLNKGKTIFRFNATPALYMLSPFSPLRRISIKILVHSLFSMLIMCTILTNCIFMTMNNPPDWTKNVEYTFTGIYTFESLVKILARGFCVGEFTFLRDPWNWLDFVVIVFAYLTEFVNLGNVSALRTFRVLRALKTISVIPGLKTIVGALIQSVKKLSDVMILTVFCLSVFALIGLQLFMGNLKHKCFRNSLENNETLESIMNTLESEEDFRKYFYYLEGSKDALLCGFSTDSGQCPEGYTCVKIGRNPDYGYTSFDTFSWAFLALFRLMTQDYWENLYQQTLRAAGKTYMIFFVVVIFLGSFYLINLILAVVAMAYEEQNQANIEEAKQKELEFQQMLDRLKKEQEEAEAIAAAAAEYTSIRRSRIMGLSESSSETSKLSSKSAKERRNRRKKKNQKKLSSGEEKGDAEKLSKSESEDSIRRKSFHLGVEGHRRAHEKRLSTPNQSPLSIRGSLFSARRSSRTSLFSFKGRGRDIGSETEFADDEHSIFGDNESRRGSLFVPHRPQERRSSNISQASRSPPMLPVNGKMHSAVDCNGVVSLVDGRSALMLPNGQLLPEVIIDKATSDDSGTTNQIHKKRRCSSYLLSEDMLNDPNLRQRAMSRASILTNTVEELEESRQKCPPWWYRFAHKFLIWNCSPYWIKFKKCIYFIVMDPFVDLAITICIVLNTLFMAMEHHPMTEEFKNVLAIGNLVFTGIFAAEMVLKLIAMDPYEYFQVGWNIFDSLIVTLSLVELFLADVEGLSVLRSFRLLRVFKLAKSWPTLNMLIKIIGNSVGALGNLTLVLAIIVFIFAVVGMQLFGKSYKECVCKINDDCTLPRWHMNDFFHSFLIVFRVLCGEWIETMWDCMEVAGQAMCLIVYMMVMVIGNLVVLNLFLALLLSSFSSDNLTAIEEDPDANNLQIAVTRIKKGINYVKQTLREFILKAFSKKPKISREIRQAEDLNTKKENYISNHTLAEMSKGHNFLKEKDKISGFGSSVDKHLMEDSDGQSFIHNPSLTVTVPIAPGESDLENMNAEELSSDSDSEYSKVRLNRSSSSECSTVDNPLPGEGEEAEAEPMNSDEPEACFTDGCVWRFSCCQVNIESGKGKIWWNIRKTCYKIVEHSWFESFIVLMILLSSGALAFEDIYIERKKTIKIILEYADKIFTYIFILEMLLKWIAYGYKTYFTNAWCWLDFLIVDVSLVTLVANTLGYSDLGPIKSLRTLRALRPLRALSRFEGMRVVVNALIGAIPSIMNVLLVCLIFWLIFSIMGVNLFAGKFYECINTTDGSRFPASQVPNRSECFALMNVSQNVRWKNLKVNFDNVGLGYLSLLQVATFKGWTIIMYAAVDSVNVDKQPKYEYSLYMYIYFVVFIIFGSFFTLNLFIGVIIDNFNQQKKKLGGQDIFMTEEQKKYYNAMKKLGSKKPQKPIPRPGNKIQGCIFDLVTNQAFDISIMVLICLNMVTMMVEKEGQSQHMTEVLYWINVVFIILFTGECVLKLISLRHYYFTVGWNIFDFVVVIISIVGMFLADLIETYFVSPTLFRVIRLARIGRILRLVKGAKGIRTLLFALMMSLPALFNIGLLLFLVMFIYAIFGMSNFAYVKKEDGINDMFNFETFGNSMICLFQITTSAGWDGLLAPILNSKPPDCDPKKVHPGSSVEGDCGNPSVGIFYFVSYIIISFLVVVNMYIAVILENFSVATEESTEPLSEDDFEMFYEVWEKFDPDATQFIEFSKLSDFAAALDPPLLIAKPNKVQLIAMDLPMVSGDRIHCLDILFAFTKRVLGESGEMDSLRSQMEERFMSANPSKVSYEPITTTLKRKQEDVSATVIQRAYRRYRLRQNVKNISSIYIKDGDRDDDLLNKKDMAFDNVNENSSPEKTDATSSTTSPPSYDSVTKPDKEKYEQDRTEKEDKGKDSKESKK
Please assign no (0) whenever IC50 is at or above 1000 nM, and yes (1) whenever it is below.

| molecule | class label |
| --- | --- |
| O=C(NC[C@@H]1CCC[C@H]1C(O)CCc1ccccc1)c1cc(Cl)cc(Cl)c1 (relative stereo) | no (0) |
| OC(CCc1ccccc1)[C@@H]1CCC[C@H]1OCCc1ccc(OC(F)(F)F)cc1 (relative stereo) | no (0) |
| OC(CCc1ccccc1)[C@@H]1CCC[C@H]1OCCc1cc(Cl)cc(Cl)c1 (relative stereo) | no (0) |
| O=C(NCc1cc(Cl)cc(Cl)c1)[C@@H]1CCC[C@H]1C(O)CCc1ccccc1OC(F)(F)F (relative stereo) | no (0) |
| O=C(NCc1ccccc1)[C@@H]1CCC[C@H]1C(O)CCc1cccc(OC(F)(F)F)c1 (relative stereo) | yes (1) |
| O=C(NCc1ccccc1)[C@@H]1CCC[C@H]1C(O)CCc1ccc(OC(F)(F)F)cc1 (stereo in doubt; 13B) | yes (1) |
| COc1ccc(CCC(O)[C@@H]2CCC[C@H]2C(=O)NCc2cc(Cl)cc(Cl)c2)cc1 (relative stereo) | no (0) |
